# Test system: pMAPK (Thr202/Tyr204) in MDA-MB453 or DMS 114 cells
# Protocol description: Detection of pMAPK (Thr202/Tyr204) using Alpha ELISA (pERK alphaLISA)
# Assay type: cell-based
# Run conditions: 1 hr incubation with compound; cell line not given (MDA-MB453 or DMS 114)
pIC50: −log10 of the molar value.
Measurement label: pIC50

Illustrative cases are given below, each with its answer.
{"columns": ["Compound", "pIC50"],
 "data": [
  ["C=CC(=O)NC1CN(C(=O)CO)CC1Nc1ncc2cc(-c3c(Cl)c(OC)cc(OC)c3Cl)ccc2n1 (centres unmarked)", "7.00 to 8.00"],
  ["C=CC(=O)N[C@H]1COC[C@H]1Nc1ncc2cc(-c3c(Cl)c(OC)cc(OC)c3Cl)cc(Cl)c2n1", "> 8.00"],
  ["C=CC(=O)N[C@H]1CCOC[C@H]1Nc1cc2c(cn1)cc(-c1c(Cl)c(OC)cc(OC)c1Cl)c(=O)n2C", "> 8.00"]
]}

Consider the record given below.
What does the record list as pIC50 for "C=CC(=O)N[C@@H]1COC[C@@H]1Nc1ncc2cc(-c3c(Cl)c(OC)cc(OC)c3Cl)ccc2n1" ?
6.00 to 7.00

====

# Target desc: wild type FGFR-4 (Homo sapiens)
# Sequence (P22455 22-802): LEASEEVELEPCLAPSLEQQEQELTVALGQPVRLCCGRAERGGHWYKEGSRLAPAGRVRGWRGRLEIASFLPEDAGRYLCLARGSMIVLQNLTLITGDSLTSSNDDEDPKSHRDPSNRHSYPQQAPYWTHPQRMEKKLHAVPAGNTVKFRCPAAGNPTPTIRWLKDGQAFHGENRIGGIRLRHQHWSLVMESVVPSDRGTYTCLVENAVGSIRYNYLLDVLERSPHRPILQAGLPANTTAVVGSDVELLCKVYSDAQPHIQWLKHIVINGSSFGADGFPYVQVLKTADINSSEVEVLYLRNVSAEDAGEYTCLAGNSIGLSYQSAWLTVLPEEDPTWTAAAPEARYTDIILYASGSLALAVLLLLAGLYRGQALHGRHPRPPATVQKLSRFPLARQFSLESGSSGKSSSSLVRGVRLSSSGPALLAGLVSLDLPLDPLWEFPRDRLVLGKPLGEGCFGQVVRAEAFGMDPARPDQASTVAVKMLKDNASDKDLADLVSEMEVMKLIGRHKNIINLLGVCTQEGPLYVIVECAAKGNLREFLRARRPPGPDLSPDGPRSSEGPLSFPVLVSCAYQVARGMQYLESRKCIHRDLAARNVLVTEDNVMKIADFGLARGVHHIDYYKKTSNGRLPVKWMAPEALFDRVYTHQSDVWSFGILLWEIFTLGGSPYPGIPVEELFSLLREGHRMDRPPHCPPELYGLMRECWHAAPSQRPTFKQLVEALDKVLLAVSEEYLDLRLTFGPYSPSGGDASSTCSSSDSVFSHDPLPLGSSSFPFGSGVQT
pIC50: −log10 of the molar value.
Measurement label: pIC50

Illustrative cases are given below, each with its answer.
{"columns": ["Compound", "Value measured"],
 "data": [
  ["C=CC(=O)N[C@H]1CN(C(=O)OC(C)(C)C)C[C@H]1Nc1ncc2cc(-c3c(Cl)c(OC)cc(OC)c3Cl)ccc2n1 (racemic)", "7.00 to 8.00"],
  ["C=CC(=O)N[C@H]1COC[C@H]1Nc1ncc2cc(-c3c(Cl)c(OC)cc(OC)c3Cl)cc(Cl)c2n1", "> 8.00"],
  ["C=CC(=O)N[C@H]1CC(C)(C)OC[C@H]1Nc1ncc2cc(-c3c(Cl)c(OC)cc(OC)c3Cl)ccc2n1", "< 6.00"],
  ["C=CC(=O)N[C@H]1C[C@@H](O)C[C@H]1Nc1ncc2cc(-c3c(Cl)c(OC)cc(OC)c3Cl)ccc2n1", "7.00 to 8.00"],
  ["C=CC(=O)NC1CN(C(=O)COC)CC1Nc1ncc2cc(-c3c(Cl)c(OC)cc(OC)c3Cl)ccc2n1 (stereo not drawn)", "> 8.00"]
]}

Query for wild type FGFR-4 (Homo sapiens): what pIC50 does the record show for "C=CC(=O)N[C@H]1COCC[C@H]1Nc1ncc2cc(-c3c(Cl)c(OC)cc(OC)c3Cl)ccc2n1" ?
7.00 to 8.00

Query for wild type FGFR-4 (Homo sapiens): what pIC50 does the record show for "C#CC(=O)N[C@H]1CCC[C@H]1Nc1ncc2cc(-c3cc(C(=O)NOC)ccc3Cl)ccc2n1" ?
> 8.00

Query for wild type FGFR-4 (Homo sapiens): what pIC50 does the record show for "C#CC(=O)N[C@H]1CCC[C@H]1Nc1ncc2cc(-c3cc(C(=O)NC4CC4)ccc3C)ccc2n1" ?
7.00 to 8.00

Query for wild type FGFR-4 (Homo sapiens): what pIC50 does the record show for C=CC(=O)N[C@H]1COCC1Nc1ncc2cc(-c3cc(OC)cc(OC)c3Cl)ccc2n1 (stereo partly drawn) ?
7.00 to 8.00

Values compiled from patent US10875837B2.
